Answer each item with its documented GI50.
- Test system: EKVX
- TEST: NCI tumour cell line growth inhibition, 48 h
Calls of active or inactive are those of the source. Rule as the data show it: active = GI50 up to about 1.1 µM and inactive = higher.

[
  {
    "COMPOUND": "O=C1CSC(c2cccc(Cl)c2)N1c1ccc(-n2c(-c3ccccc3)nc3ccccc3c2=O)cc1 (stereo unspecified)",
    "GI50": "> 100 µM (inactive)"
  },
  {
    "COMPOUND": "CC1=C/C(=N\\OCC(=O)O)CC(c2ccc(C(C)C)cc2)C1 (stereo unspecified)",
    "GI50": "> 100 µM (inactive)"
  },
  {
    "COMPOUND": "c1ccc(CN(Cn2cccn2)Cn2cccn2)nc1",
    "GI50": "> 100 µM (inactive)"
  },
  {
    "COMPOUND": "O=C1/C(=C\\c2ccccc2)c2ccccc2N1/N=C\\c1ccccc1",
    "GI50": "23.2 µM (inactive)"
  },
  {
    "COMPOUND": "O=C(Cc1ccccc1)NNc1nc(NNC(=O)c2ccncc2)nc(Nc2ccc([N+](=O)[O-])cc2)n1",
    "GI50": "9.46 µM (inactive)"
  },
  {
    "COMPOUND": "O=C1OC2C=CC1C1(CCOC1=O)C2 (stereo unspecified)",
    "GI50": "> 100 µM (inactive)"
  },
  {
    "COMPOUND": "NNc1nc2ccccc2c(=O)n1NC(=O)C(=O)Nc1cccc(C(F)(F)F)c1",
    "GI50": "> 100 µM (inactive)"
  },
  {
    "COMPOUND": "CC1/C=C/[C@@]2(C)CCC(C(C)(C)O)C2C(O)C[C@](C)(O)/C=C/C1 (stereo partly specified)",
    "GI50": "> 100 µM (inactive)"
  }
]

Hello, I would appreciate it if you could give GI50 for each entry below.
1. NC(=O)N/N=C/C(/C=N/NC(N)=O)[N+](=O)[O-]
2. COc1ccc(C2=Nc3cc(C)c(C)cc3NC(c3ccccc3)C2)cc1 (stereo unspecified)

["> 100 µM (inactive)", "> 100 µM (inactive)"]

Hello, I would appreciate it if you could give GI50 for each entry below.
1. C=CC1(CCC(Br)C(C)(C)Cl)CO1 (stereo unspecified)
2. Oc1ccccc1C(Sc1nc2ccccc2s1)Sc1nc2ccccc2s1

> 10 µM (inactive)
23.4 µM (inactive)

Hello, I would appreciate it if you could give GI50 for each entry below.
1. CCCCCCCCCCCCCC1=C(O)C(=O)C(CC2=C(O)C(=O)C(CCCCCCCCCCCCC)=C(O)C2=O)=C(O)C1=O
2. COC(=O)C(CCCCN)NC(=O)C(CCCCN)NC(C)=O.Cc1ccc(C(=O)Nc2ccc(S(=O)(=O)O)c3cc(S(=O)(=O)O)cc(S(=O)(=O)O)c23)cc1NC(=O)c1cccc(NC(=O)Nc2cccc(C(=O)Nc3cc(C(=O)Nc4ccc(S(=O)(=O)O)c5cc(S(=O)(=O)O)cc(S(=O)(=O)O)c45)ccc3C)c2)c1
3. Cc1c(C(=O)OCc2ccccc2)[n+]([O-])c2ccccc2[n+]1[O-]

1. > 100 µM (inactive)
2. > 50 µM (inactive)
3. 25.8 µM (inactive)

Hello, I would appreciate it if you could give GI50 for each entry below.
1. O=C(COC(c1ccc(F)cc1)c1ccc(F)cc1)N1CCN(CCCc2ccccc2)CC1
2. O=C(O)CC(Nc1ccccc1)C(=O)O (stereo unspecified)
3. O=C1c2c(O)cccc2Cc2cc(CO)cc(O)c21
4. Cc1cc(-c2nc3cc(F)ccc3s2)ccc1NC(=O)C(C)N (stereo unspecified)
5. Cc1c(/C=N/NC(=S)Nc2ccc(Cl)cc2)c(=O)n(-c2ccccc2)n1C
6. CCN(CC)C(=S)SC(C(=O)Nc1nnc(-c2ccccc2)o1)c1ccccc1 (stereo unspecified)

["4.44 µM (inactive)", "> 100 µM (inactive)", "3.03 µM (inactive)", "3.1 µM (inactive)", "22.6 µM (inactive)", "18.4 µM (inactive)"]

====

Answer each item with its documented GI50.
- Test system: DMS-114
- TEST: NCI tumour cell line growth inhibition, 48 h
Activity calls are given as the source filed them. Rule as the data show it: active = GI50 up to about 1.1 µM and inactive = higher.

[
  {
    "MOLECULE": "O=C(Cc1cc[n+]([O-])cc1)C(=O)Nc1cc(Cl)c(Cl)cc1Cl",
    "QUANTITY NAME": "GI50",
    "OBSERVED VALUE": "> 100 µM (inactive)"
  },
  {
    "MOLECULE": "NC(CCC(=O)NC(CSC(=O)N(O)c1ccc(Br)cc1)C(=O)NCC(=O)O)C(=O)O (stereo not given)",
    "QUANTITY NAME": "GI50",
    "OBSERVED VALUE": "> 100 µM (inactive)"
  },
  {
    "MOLECULE": "O=C(NC(=O)c1cn(CCN2CCNCC2)c(=O)[nH]c1=O)OCc1ccccc1",
    "QUANTITY NAME": "GI50",
    "OBSERVED VALUE": "63.5 µM (inactive)"
  },
  {
    "MOLECULE": "CC(=O)OC1COC(N2C(=O)/C(=N\\NC(N)=S)c3cc(Br)ccc32)C(OC(C)=O)C1OC(C)=O (stereo not given)",
    "QUANTITY NAME": "GI50",
    "OBSERVED VALUE": "19.9 µM (inactive)"
  },
  {
    "MOLECULE": "COc1ccc2c(c1)C1C(CO2)C(c2ccccc2)=NN1c1ccccc1 (stereo not given)",
    "QUANTITY NAME": "GI50",
    "OBSERVED VALUE": "> 100 µM (inactive)"
  }
]

Hello, I would appreciate it if you could give GI50 for each entry below.
1. COC(=O)/C(=N\N)C(C(=O)C(=O)Nc1nnc(S)[nH]1)c1nc2ccc([N+](=O)[O-])cc2nc1O (stereo not given)
2. O=C1/C(=C/c2cccc([N+](=O)[O-])c2)COc2ccc(Br)cc21

> 100 µM (inactive)
65.9 µM (inactive)

Hello, I would appreciate it if you could give GI50 for each entry below.
1. N=C(N)SCc1cccc([N+](=O)[O-])c1
2. C/C1=N\[N-]C(=O)c2ccccc2C(=O)N/N=C(\C)c2cccc1n2.O=[N+]([O-])[O-].[Zn+2]
3. CSc1ccc2c(cc1=O)C(NC(=O)c1ccccc1)CCc1cc(O)c(O)c(O)c1-2 (stereo not given)
4. O=S(=O)(c1ccccc1)C1CN(Cc2ccccc2)CCN(Cc2ccccc2)C1
5. COc1ccccc1/C=C(\NC(=O)c1ccccc1)c1nc2ccc(Cl)cc2[nH]1

["23.6 µM (inactive)", "> 100 µM (inactive)", "26.2 µM (inactive)", "10 µM (inactive)", "17.2 µM (inactive)"]

====

- System: Malme-3M
- TEST: NCI tumour cell line growth inhibition, 48 h
Activity calls are given as the source filed them. Rule as the data show it: active = GI50 up to about 1.1 µM and inactive = higher.
Field 'call' accepts y for active, n for inactive

Solved cases below.
[
  {
    "MOLECULE": "CC1=CCN(c2ccccn2)OC1c1ccccc1 (stereo not given)",
    "QUALITATIVE LABEL": "n"
  },
  {
    "MOLECULE": "O=C1OC(c2ccc(Cl)c3ccccc23)c2ccccc21 (stereo not given)",
    "QUALITATIVE LABEL": "n"
  },
  {
    "MOLECULE": "O=C(CCc1ccc(O)c(O)c1)NCCc1ccc(O)c(O)c1",
    "QUALITATIVE LABEL": "n"
  },
  {
    "MOLECULE": "c1cc2c3c(c1)c1cc4c(cc1c[n+]3CC2)OCO4 [ANHYDROLYCORINIUM CHLORIDE]",
    "QUALITATIVE LABEL": "y"
  },
  {
    "MOLECULE": "CCNCC(=O)O[C@]1(CC)C(=O)OCc2c1cc1n(c2=O)Cc2cc3ccccc3nc2-1",
    "QUALITATIVE LABEL": "n"
  },
  {
    "MOLECULE": "CCc1cc2c(c3c1CCCC3=O)CC1(C2)Cc2cc(CC)c3c(c2C1)C(=O)CCC3",
    "QUALITATIVE LABEL": "n"
  },
  {
    "MOLECULE": "C[C@H](NC(=O)C(C)(Cc1ccc(O)cn1)NC(=O)c1ccccc1)c1ccccc1 (stereo not given in full)",
    "QUALITATIVE LABEL": "n"
  },
  {
    "MOLECULE": "COc1cc2cc3c4c(cc(OC)c(OC)c4c2cc1OC)CCN3C(=O)OCCBr",
    "QUALITATIVE LABEL": "n"
  },
  {
    "MOLECULE": "O=[N+]([O-])c1ccc(C2CC(c3ccccc3Cl)=Nc3ccccc3S2)cc1 (stereo not given)",
    "QUALITATIVE LABEL": "n"
  },
  {
    "MOLECULE": "O=C(O)c1c2c(cc3c1CC1(Cc4ccccc4C1)C3)CCC2",
    "QUALITATIVE LABEL": "n"
  }
]

Look up the recorded call for CN(C)CCN1C(=O)c2cccc3cc([N+](=O)[O-])cc(c23)C1=O [MITONAFIDE] in this test. y

Look up the recorded call for COc1ccc(C2=Nc3cc(C)c(C)cc3NC(c3ccccc3)C2)cc1 (stereo not given) in this test. n

Look up the recorded call for CCOC(=O)/C(C[C@H]1OC(C)(C)O[C@@H]1[C@H]1COC(C)(C)O1)=N/O in this test. n

Look up the recorded call for C=CC1(CCC(Br)C(C)(C)Cl)CO1 (stereo not given) in this test. n

Look up the recorded call for C1=N\c2ccc(cc2)/N=C\c2ccc(cc2)OCc2cccc(n2)COc2ccc/1cc2 in this test. n

Look up the recorded call for Cc1c(/C=N/NC(=S)Nc2ccc(Cl)cc2)c(=O)n(-c2ccccc2)n1C in this test. n

Look up the recorded call for O=C(COC(c1ccc(F)cc1)c1ccc(F)cc1)N1CCN(CCCc2ccccc2)CC1 in this test. n

Look up the recorded call for Oc1ccc(C(O)(c2ccccc2)c2ccccc2)c2ccccc12 in this test. n

Look up the recorded call for CC(C)N(C(C)C)P(OCCC#N)OC1CC(n2cnc3c(=O)[nH]cnc32)OC1COC(=O)NCCCCCCNC(=O)OC(C)(C)c1ccc(-c2ccccc2)cc1 (stereo not given) in this test. n

Look up the recorded call for CCOC(=O)Oc1cc2c(c(OC)c1OC)-c1ccc(SC)c(=O)cc1C(NC(=O)C(F)(F)F)CC2 (stereo not given) in this test. y
